Molecular target: T1, recombinant human IL-6 (human, UniProt P05231 30-212)
T1 construct: Flowed in solution over the captured antibodies
T1 sequence (P05231 30-212 limits assumed): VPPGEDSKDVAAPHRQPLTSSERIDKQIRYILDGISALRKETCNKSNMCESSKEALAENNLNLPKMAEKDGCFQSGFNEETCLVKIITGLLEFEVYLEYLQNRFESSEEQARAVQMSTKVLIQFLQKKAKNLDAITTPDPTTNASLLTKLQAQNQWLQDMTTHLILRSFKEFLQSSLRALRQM
Experiment: SPR (Biacore), supernatant IgG on Protein A, 25 C
valueType: kon (M⁻¹ s⁻¹)

anti-IL-6 antibody, heavy chain S61A, light chain WT (antibody, IgG1, V domains shown, Full IgG1 tested; V domains derived as in m2) VH: EVQLVESGGGLVQPGGSLRLSCAASGFTFSPFAMSWVRQAPGKGLEWVAKISPGGSWTYYADTVTGRFTFSLDTSKSTAYLQMNSLRAEDTAVYYCARQLWGYYALDIWGQGTLVTVSS VL: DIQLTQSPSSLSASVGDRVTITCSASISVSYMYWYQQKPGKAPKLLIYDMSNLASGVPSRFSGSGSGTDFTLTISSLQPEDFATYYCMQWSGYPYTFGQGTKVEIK : 379000
anti-IL-6 antibody, heavy chain WT, light chain S28E (antibody, IgG1, V domains shown, Full IgG1 tested; V domains derived as in m2) VH: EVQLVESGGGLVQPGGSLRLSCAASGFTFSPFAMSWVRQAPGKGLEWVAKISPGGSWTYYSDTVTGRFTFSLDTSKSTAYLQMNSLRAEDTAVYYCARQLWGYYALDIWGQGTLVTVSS VL: DIQLTQSPSSLSASVGDRVTITCSASIEVSYMYWYQQKPGKAPKLLIYDMSNLASGVPSRFSGSGSGTDFTLTISSLQPEDFATYYCMQWSGYPYTFGQGTKVEIK : 420000
